Please respond with reported %Inh for every item in the list.
# System: PIKFYVE
# assay_conditions: concentration: 1 μM, replicates: in singlicate; n = 1;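 further: KINOMEscan kinase panel screen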

Use the examples below as a reference point.
>>> experimental_value("Cc1ccc(C(=O)Nc2ccc(Nc3ccnc4cc(-c5ccccn5)ccc34)cc2O)cc1.Cl")
"4%"
>>> experimental_value("Cc1csc(-c2nc(Nc3ccncc3)c3ccccc3n2)n1")
"78%"
>>> experimental_value("CCn1c(-c2ccccn2)nc2cnccc21")
"32%"
>>> experimental_value("Cc1ccc(NC(=O)Nc2cc(C(C)(C)C)nn2-c2ccccc2)cc1")
"0%"
>>> experimental_value("Cc1ccccc1-n1cnc2c(N)ncnc21")
"0%"
>>> experimental_value("COc1cccc(NC(=O)NC2CCN(c3ccnc(Nc4ccc(F)cc4)n3)C2)c1 (centres unmarked)")
"31%"
>>> experimental_value("COc1ccc(Nc2nccc(NCCNC(=O)Nc3ccccc3F)n2)cc1")
"0%"
>>> experimental_value("Cn1ccc2ncnc(Oc3ccc(NC(=O)Nc4ccccc4)cc3)c21")
"21%"

Field: %Inh. Fill in for each record below.
1. O=C1NC(=O)C(N2CCc3ccccc32)=C1c1ccccc1Cl
2. CC(=O)Nc1nc2cnc(Nc3cc(NC(=O)c4cccc(CCC#N)c4)ccc3C)nc2s1
3. Nc1nc(-c2nccs2)c(-c2ccnc3ccccc23)s1

["0%", "0%", "0%"]

###

# Test system: ITK
# assay_conditions: concentration: 1 μM, replicates: in singlicate; n = 1
Please respond with reported %Inh for every item in the list.
One number for each entry, in %.

>>> experimental_value("COc1cccc(NC(=O)NC2CCN(c3ccnc(Nc4ccc(F)cc4)n3)C2)c1 (stereo not drawn)")
0

Field: %Inh. Fill in for each record below.
1. Cl.O=C(Nc1cccc(-c2nn3ncccc3c2-c2ccnc(Nc3cccnc3)n2)c1)c1c(F)cccc1F
2. Nc1nc(-c2nccs2)c(-c2ccnc3ccccc23)s1

15
6

Field: %Inh. Fill in for each record below.
1. Fc1cccc(COc2nnc(-c3ccc4c(c3)CCO4)o2)c1
2. Fc1cc(Cl)ccc1Nc1ccnc2cc(-c3ccc(CN4CCCCC4)o3)ccc12
3. COc1ccc2nc(-c3cccc(C)n3)nc(Nc3ccncc3)c2c1

1. 23
2. 2
3. 13

###

# Tested on: MEK5
# Construct: gene MAP2K5
# assay_conditions: concentration: 1 μM, replicates: in singlicate; n = 1
measurement_name: %Inh

Use the examples below as a reference point.
>>> experimental_value("O=C(Nc1ccccc1)Nc1cccc(Oc2ccc3nccn3n2)c1")
"37%"
>>> experimental_value("O=c1cc(N2CCOCC2)nc2n(Cc3cccc(Cl)c3Cl)ccn12 [GSK2286295]")
"13%"
>>> experimental_value("CN(C)CCN(C)C(=O)c1cc(-c2ccncc2)c(-c2ccc(Cl)c(O)c2)o1.Cl.Cl [SB-710397]")
"48%"

Below: the item to evaluate.
Any idea what its %Inh is? The compound is COc1cc(Nc2nccc(N3CCC(NC(=O)Nc4cc(C)ccc4C)C3)n2)cc(OC)c1OC (stereo not shown) [GSK1379762]
99.8%

###

# Test system: FLT1
# assay_conditions: concentration: 1 μM, replicates: in singlicate; n = 1
measurement_name: %Inh (%)
One number for each entry, in %.

>>> experimental_value("Cc1csc(-c2nc(Nc3ccncc3)c3ccccc3n2)n1")
19
>>> experimental_value("COc1cc2ncn(-c3cc(OCC4CCCO4)c(C(N)=O)s3)c2cc1OC (stereo not shown)")
20
>>> experimental_value("COC(=O)c1c(-c2ccccc2)c2cc(OC)ccc2c(=O)n1Cc1ccccc1")
0
>>> experimental_value("Nc1ncnc2[nH]c(-c3ccccc3)nc12")
2

Field: %Inh. Fill in for each record below.
1. Cc1cccc(-c2nc(Nc3ccncc3)c3ccccc3n2)n1
2. Nc1nc(-c2nccs2)c(-c2ccnc3ccccc23)s1
3. Cn1ccc2ncnc(Oc3cccc(C(=O)Nc4ccccc4)c3)c21

1: 0; 2: 24; 3: 54

###

# Test system: GSK3A
# assay_conditions: concentration: 1 μM, replicates: in singlicate; n = 1
Labelling field: enter 1 (yes) if recorded %Inh is less than 1%. Enter 0 (no) if it equals or exceeds that cut-off.

For orientation, consider the following solved cases.
>>> class("Cc1nnc(-c2ccc3occ(-c4ccc(S(C)=O)cc4)c3c2)[nH]1 (stereo not drawn)")
"0 (no)"
>>> class("O=C(Nc1n[nH]c2nc(-c3nccs3)c(Br)cc12)C1CC1 [SB-742251]")
"0 (no)"
>>> class("COC(=O)c1c(-c2ccccc2)c2cc(C(=O)O)ccc2c(=O)n1Cc1ccccc1")
"1 (yes)"

Input Cc1cc(N2Cc3ccccc3C2)nc(Nc2ccc(S(=O)(=O)N3CCOCC3)cc2)n1.Cl [GSK1669917] ; condition: %Inh strictly below 1%. Does it hold?
1 (yes)

Input Cn1ccc2ncnc(Oc3ccc(Nc4nc5ccccc5[nH]4)cc3)c21 ; condition: %Inh strictly below 1%. Does it hold?
0 (no)

Input Fc1cccc(COc2nnc(-c3ccc4c(c3)CCO4)o2)c1 ; condition: %Inh strictly below 1%. Does it hold?
1 (yes)

Input O=C(Nc1n[nH]c2cc(-c3cccc(F)c3F)ccc12)C1CC1 [SB-733894] ; condition: %Inh strictly below 1%. Does it hold?
1 (yes)

Input CCn1c(-c2cccnc2O)nc2cnccc21 [SB-736715] ; condition: %Inh strictly below 1%. Does it hold?
1 (yes)

###

Please respond with reported %Inh for every item in the list.
# System: LATS2
# assay_conditions: concentration: 1 μM, replicates: in singlicate; n = 1
One number for each entry, in %.

Use the examples below as a reference point.
>>> experimental_value("COc1ccccc1-c1ccc2c(NC(=O)C3CC3)n[nH]c2n1 [SB-711239]")
8
>>> experimental_value("NC(=O)c1nnc2ccccc2c1N")
0
>>> experimental_value("O=C1NC(=O)C(N2CCc3ccccc32)=C1c1ccccc1Cl [SB-373598]")
19
>>> experimental_value("CC1=C(C(=O)Nc2cc3cn[nH]c3cc2F)C(c2ccc(C(F)(F)F)cc2)CC(=O)N1 (centres unmarked) [GSK429286]")
39

Below: the item to evaluate.
Any idea what its %Inh is? The molecule is COc1cc(Nc2nccc(N3CCC(NC(=O)Nc4cc(C)ccc4C)C3)n2)cc(OC)c1OC (centres unmarked) [GSK1379762]
0

###

Please respond with reported %Inh for every item in the list.
# Test system: DDR2
# assay_conditions: concentration: 1 μM, replicates: in singlicate; n = 1
Give bare numbers, in %.

>>> experimental_value("Cn1ccc2ncnc(Oc3ccc(NC(=O)Nc4ccccc4)cc3)c21")
74

Field: %Inh. Fill in for each record below.
1. Cc1ccc(NC(=O)Nc2cccc(Cl)c2)cc1-c1ccc(C(=O)Nc2ccncc2)cc1
2. Cc1ccc(C(=O)Nc2ccc(Nc3ccnc4cc(-c5ccccn5)ccc34)cc2O)cc1.Cl
3. CC1=C(C(=O)Nc2cc3cn[nH]c3cc2F)C(c2ccc(C(F)(F)F)cc2)CC(=O)N1 (centres unmarked)
4. Cl.Oc1ccc(-c2nc(-c3ccccc3)[nH]c2-c2ccncc2)cc1
5. CN1C(=O)C(Nc2ccc(Cl)c(C(=O)O)c2)=C(c2ccc(Cl)cc2)C1=O

1. 72
2. 10
3. 0
4. 59
5. 0

Field: %Inh. Fill in for each record below.
1. Nc1ncnc2[nH]c(-c3ccccc3)nc12
2. Cc1ccccc1-n1cnc2c(N)ncnc21

13
0

Field: %Inh. Fill in for each record below.
1. CS(=O)(=O)c1ccc(-c2c(-c3ncn[nH]3)sc(N3CCOCC3)c2C#N)cc1
2. COc1ccc2nc(-c3cccc(C)n3)nc(Nc3ccncc3)c2c1
3. CSc1nn2c(=O)cc(N3CCOCC3)nc2n1Cc1cccc(C(F)(F)F)c1C

[18, 5, 0]

###

# Tested on: GSK3B
# assay_conditions: concentration: 1 μM, replicates: in singlicate; n = 1
measurement_name: %Inh (%)
Answers are plain numbers, in %.

>>> experimental_value("Cc1cccc(-c2nc(C)cc(Nc3ccncc3)n2)n1")
17

Field: %Inh. Fill in for each record below.
1. O=c1cc(N2CCOCC2)nc2n(Cc3cccc(Cl)c3Cl)ccn12
2. Fc1cc(Cl)ccc1Nc1ccnc2cc(-c3ccc(CN4CCCCC4)o3)ccc12
3. CCn1c(-c2cccnc2O)nc2cnccc21

[12, 0, 0]

Any idea what its %Inh is? The molecule is COc1ccc(CNC(=O)NC2CCN(c3ccnc(Nc4cc(OC)c(OC)c(OC)c4)n3)C2)cc1 (centres unmarked)
0

###

Please respond with reported %Inh for every item in the list.
# Test system: DAPK3
# assay_conditions: concentration: 1 μM, replicates: in singlicate; n = 1
One number for each entry, in %.

Use the examples below as a reference point.
>>> experimental_value("COC(=O)c1c(-c2ccccc2)c2cc(C(=O)O)ccc2c(=O)n1Cc1ccccc1")
0
>>> experimental_value("O=C(Nc1n[nH]c2nc(-c3nccs3)c(Br)cc12)C1CCCC1")
5
>>> experimental_value("CC(C)(C)c1ccc(C(=O)Nc2cn3cc(Cl)ccc3n2)cc1")
3
>>> experimental_value("COc1ccc(CNC(=O)NC2CCN(c3ccnc(Nc4cc(OC)c(OC)c(OC)c4)n3)C2)cc1 (stereo not drawn)")
10

Field: %Inh. Fill in for each record below.
1. CS(=O)(=O)c1ccc(-c2nc3n(c2-c2ccncc2)CCC3)cc1
2. COc1cc2ncn(-c3cc(OCC4CCCO4)c(C(N)=O)s3)c2cc1OC (stereo not drawn)

[22, 2]
